Where do these numbers come from? They come from patent US20210253562A1.

Let's look at some molecules and their measured Ki.
# Test target: EP3 membrane (EP3 receptor) (Homo sapiens, UniProt P43115)
# Construct: purchased Millipore HTS092M
# Sequence (P43115 1-390): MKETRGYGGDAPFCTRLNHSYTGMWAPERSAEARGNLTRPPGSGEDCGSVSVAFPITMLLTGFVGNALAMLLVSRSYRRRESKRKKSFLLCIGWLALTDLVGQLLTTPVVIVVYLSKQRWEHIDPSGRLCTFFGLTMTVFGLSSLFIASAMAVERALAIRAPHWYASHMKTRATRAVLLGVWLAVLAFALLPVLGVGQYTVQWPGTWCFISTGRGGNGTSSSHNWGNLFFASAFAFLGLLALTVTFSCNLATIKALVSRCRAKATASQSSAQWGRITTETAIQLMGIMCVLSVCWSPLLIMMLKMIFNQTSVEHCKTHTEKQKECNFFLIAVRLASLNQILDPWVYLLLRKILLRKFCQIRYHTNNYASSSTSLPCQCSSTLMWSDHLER
# Test summary: [3H]-PGE2 binding; EP3 competition binding (SPA)
Could you give me the number in nM? Just the number is fine.

Lab note: COc1cc(S(=O)(=O)NC(=O)NC/C(F)=C2\CCCc3cnn(Cc4ccc(Cl)cc4Cl)c32)ccc1Cl [Compound #175] gave Ki of 16

====

# Test target: EP3 membrane (EP3 receptor) (Homo sapiens)
# Construct: purchased Millipore HTS092M
# Test summary: [3H]-PGE2 binding; EP3 competition binding (SPA)
Measured quantity: pKi
pKi field: float, defined as -log10 of concentration (mol/L).

As a guide, the following entries are already answered.
Compound | pKi
O=C(CC/C=C1\CCCc2cnn(Cc3ccc(Cl)cc3Cl)c21)NS(=O)(=O)c1cc2ccccc2s1 [Compound #31] | 8.15
O=C(NC/C=C1\CCCc2cnn(-c3ncc(Br)cn3)c21)NS(=O)(=O)c1ccc(Cl)cc1 [Compound #94] | 6.12
O=C(NC/C(F)=C1/CCCc2cnn(Cc3ccc(Cl)cc3Cl)c21)NS(=O)(=O)c1cc(Cl)c(Cl)s1 [Compound #45] | 5.89

Just so you know, measured pKi for COc1ccc(S(=O)(=O)NC(=O)NC/C(F)=C2\COCc3cnn(Cc4ccc(Cl)cc4Cl)c32)cc1F [Compound #161] came out at 7.24

Value of measured pKi for the entry O=C(C/C=C1\CCCc2cnn(Cc3ccc(Cl)cc3Cl)c21)NS(=O)(=O)c1cc2ccccc2s1 [Compound #25] : 7.29

pKi measured on O=C(NC/C=C1\CCCc2cnn(Cc3ccc(Cl)cc3Cl)c21)NS(=O)(=O)c1ccc2c(c1)OCCO2 [Compound #16] = 8.05

====

# Test target: CHO cells over-expressing the EP3 receptor (Homo sapiens)
# Sequence (P43115 1-390): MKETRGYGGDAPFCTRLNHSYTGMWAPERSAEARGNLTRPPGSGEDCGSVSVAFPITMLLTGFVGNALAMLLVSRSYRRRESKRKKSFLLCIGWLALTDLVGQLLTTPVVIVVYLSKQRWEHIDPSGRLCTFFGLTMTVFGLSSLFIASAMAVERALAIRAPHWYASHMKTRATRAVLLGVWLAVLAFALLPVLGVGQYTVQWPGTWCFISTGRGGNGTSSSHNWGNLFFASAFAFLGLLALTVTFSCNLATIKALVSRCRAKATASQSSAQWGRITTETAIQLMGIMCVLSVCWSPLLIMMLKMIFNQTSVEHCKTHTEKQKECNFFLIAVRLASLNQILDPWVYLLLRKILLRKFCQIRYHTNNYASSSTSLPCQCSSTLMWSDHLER
# Test summary: CHO cell cAMP assay; EP3 cAMP antagonist dose response (sulprostone reference), HTRF
# Test conditions: sulprostone 700 nM (EC80) and FSK 2 μM (EC70); read-out: CHO_cAMP IC50
Measured quantity: pIC50
// pIC50 is dimensionless: -log10 of concentration (M)

Recorded results for 4 molecules are shown here.
Query smiles | pIC50
O=C(NC/C(F)=C1\CCCc2cnn(Cc3ccc(C(F)(F)F)cc3)c21)NS(=O)(=O)c1cc2ccccc2o1 | 5.41
O=C(NC/C=C1\CCCc2c(C(F)F)nn(Cc3ccc(Cl)cc3Cl)c21)NS(=O)(=O)c1ccc(Cl)cc1 | 6.92
O=C(NC/C=C1\CCCc2cnn(Cc3ccc4ccccc4c3)c21)NS(=O)(=O)c1cc(Cl)c(Cl)s1 | 6.26
O=C(NC/C(F)=C1\COCc2cnn(Cc3ccc(Cl)cc3Cl)c21)NS(=O)(=O)c1cc(Cl)c(Cl)s1 | 7.62

Lab book: pIC50 of `CC(C)S(=O)(=O)NC(=O)C/C=C1\CCCc2cnn(Cc3ccc(Cl)cc3Cl)c21` noted as 5.43

Entry under test: `O=C(C/C=C1\CCCc2cnn(Cc3ccc(Cl)cc3Cl)c21)NS(=O)(=O)c1cc2ccccc2s1` . Its pIC50 was 6.60

Form field pIC50, entry `COc1ccc(S(=O)(=O)NC(=O)CC/C=C2\CCCc3cnn(Cc4ccc(Cl)cc4Cl)c32)cc1` : 7.46

Entry `O=C(NC/C=C1\CCCc2cnn(Cc3ccc(Cl)cc3Cl)c21)NS(=O)(=O)c1ccc(Cl)cc1` — recorded pIC50 = 7.92

GET /value?item= `O=C(NC/C=C1\CCCc2cnn(Cc3ccc(Cl)cc3Cl)c21)NS(=O)(=O)c1cc(Cl)c(Cl)s1` &field=pIC50 returns 7.96

Record `COc1ccc(Cl)cc1S(=O)(=O)NC(=O)NC/C(F)=C1\CCCc2cnn(Cc3ccc(C(F)(F)F)cc3)c21` , field pIC50: 6.46

// pIC50 value for `O=C(NS(=O)(=O)c1cc(Cl)c(Cl)s1)OC/C=C1\COCc2cnn(Cc3ccc(Cl)cc3Cl)c21` : 8.10

Recorded pIC50 (molecule `O=C(NC/C=C1\CCCc2cnn(C3CCN(c4ccc(F)cc4)CC3)c21)NS(=O)(=O)c1cc(Cl)c(Cl)s1` ): 8.22
